- SUBJECT_OF_TEST: uPAR-expressing HEC-265 human endometrial adenocarcinoma cells (Homo sapiens, UniProt Q03405)
- Sequence (Q03405 23-335): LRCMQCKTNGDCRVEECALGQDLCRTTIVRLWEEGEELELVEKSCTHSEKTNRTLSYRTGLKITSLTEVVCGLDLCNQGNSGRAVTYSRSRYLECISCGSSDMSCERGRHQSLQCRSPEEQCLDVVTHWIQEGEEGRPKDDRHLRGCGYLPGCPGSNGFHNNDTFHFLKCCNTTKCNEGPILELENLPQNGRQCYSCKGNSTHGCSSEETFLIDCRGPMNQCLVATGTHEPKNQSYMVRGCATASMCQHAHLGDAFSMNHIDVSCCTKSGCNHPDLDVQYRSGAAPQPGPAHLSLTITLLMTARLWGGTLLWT
Where a SMILES comes first, the peptide text is derived from it. Bridges are numbered along the chain shown (N, C = ends). [ ]: non-standard residue; d: D form. The star is where a group is joined. DOTA = O=C(O)CN1CCN(CC(=O)O)CCN(CC(=O)*)CCN(CC(=O)O)CC1; Hyp = O=C(O)[C@@H]1C[C@@H](O)CN1; NMeE = CN[C@@H](CCC(=O)O)C(=O)O; Cit = NC(=O)NCCC[C@H](N)C(=O)O; NMeL = CN[C@@H](CC(C)C)C(=O)O; Nva = CCC[C@H](N)C(=O)O; Hexanoyl = CCCCCC(=O)*; Pentanoyl = CCCCC(=O)*
Reported IC50 values are given for each entry in this list.

| MOLECULE | IC50 |
| --- | --- |
| CCCCC(=O)N[C@H]1CSSC[C@@H](C(N)=O)NC(=O)[C@H](CC(C)C)N(C)C(=O)[C@H]([C@@H](C)CC)NC(=O)[C@@H]2C[C@@H](O)CN2C(=O)[C@@H]2CCCN2C(=O)[C@H](Cc2ccccc2)NC(=O)[C@H](Cc2ccc(O)cc2)NC(=O)[C@H](CCC(N)=O)NC(=O)[C@H](CCCNC(=N)N)NC1=O [UPAR-480] (Pentanoyl-CRQYFP[Hyp]I[NMeL]C-NH2; disulfide 1-10) | ≥ 126 nM |
| CCCCC(=O)N[C@H]1CSSC[C@@H](C(N)=O)NC(=O)[C@H](CCC)NC(=O)[C@H]([C@@H](C)CC)NC(=O)[C@H](CCC(=O)O)N(C)C(=O)[C@@H]2CCCN2C(=O)[C@H](Cc2ccccc2)NC(=O)[C@H](Cc2ccc(O)cc2)NC(=O)[C@H](CCCCNC(=O)CN2CCN(CC(=O)O)CCN(CC(=O)O)CCN(CC(=O)O)CC2)NC(=O)[C@H](CCCNC(N)=O)NC1=O [UPAR-327] (Pentanoyl-C[Cit]K(DOTA)YFP[NMeE]I[Nva]C-NH2; disulfide 1-10) | ≥ 126 nM |
| CCCCC(=O)N[C@H]1CSSC[C@@H](C(N)=O)NC(=O)[C@H](CCC)NC(=O)[C@H]([C@@H](C)CC)NC(=O)[C@@H]2C[C@@H](O)CN2C(=O)[C@@H]2CCCN2C(=O)[C@H](Cc2ccccc2)NC(=O)[C@H](Cc2c[nH]c3ccccc23)NC(=O)[C@H](CCC(N)=O)NC(=O)[C@H](CCCNC(=N)N)NC1=O [UPAR-401] (Pentanoyl-CRQWFP[Hyp]I[Nva]C-NH2; disulfide 1-10) | ≤ 10 nM |
| CCCCCC(=O)N[C@@H](CC(=O)O)C(=O)N[C@@H](CC(C)C)C(=O)N[C@H]1CSSC[C@@H](C(N)=O)NC(=O)[C@H](CC(C)C)NC(=O)[C@H]([C@@H](C)CC)NC(=O)[C@H](C)NC(=O)[C@@H]2CCCN2C(=O)[C@H](Cc2ccccc2)NC(=O)[C@H](Cc2ccc(O)cc2)NC(=O)[C@H](CCCCNC(=O)CN2CCN(CC(=O)O)CCN(CC(=O)O)CCN(CC(=O)O)CC2)NC(=O)[C@H](CCCNC(=N)N)NC1=O [UPAR-427] (Hexanoyl-DLCRK(DOTA)YFPAILC-NH2; disulfide 3-12) | ≤ 10 nM |
